# Target Entity: UniProt:P35869
# Sequence (P35869 11-848): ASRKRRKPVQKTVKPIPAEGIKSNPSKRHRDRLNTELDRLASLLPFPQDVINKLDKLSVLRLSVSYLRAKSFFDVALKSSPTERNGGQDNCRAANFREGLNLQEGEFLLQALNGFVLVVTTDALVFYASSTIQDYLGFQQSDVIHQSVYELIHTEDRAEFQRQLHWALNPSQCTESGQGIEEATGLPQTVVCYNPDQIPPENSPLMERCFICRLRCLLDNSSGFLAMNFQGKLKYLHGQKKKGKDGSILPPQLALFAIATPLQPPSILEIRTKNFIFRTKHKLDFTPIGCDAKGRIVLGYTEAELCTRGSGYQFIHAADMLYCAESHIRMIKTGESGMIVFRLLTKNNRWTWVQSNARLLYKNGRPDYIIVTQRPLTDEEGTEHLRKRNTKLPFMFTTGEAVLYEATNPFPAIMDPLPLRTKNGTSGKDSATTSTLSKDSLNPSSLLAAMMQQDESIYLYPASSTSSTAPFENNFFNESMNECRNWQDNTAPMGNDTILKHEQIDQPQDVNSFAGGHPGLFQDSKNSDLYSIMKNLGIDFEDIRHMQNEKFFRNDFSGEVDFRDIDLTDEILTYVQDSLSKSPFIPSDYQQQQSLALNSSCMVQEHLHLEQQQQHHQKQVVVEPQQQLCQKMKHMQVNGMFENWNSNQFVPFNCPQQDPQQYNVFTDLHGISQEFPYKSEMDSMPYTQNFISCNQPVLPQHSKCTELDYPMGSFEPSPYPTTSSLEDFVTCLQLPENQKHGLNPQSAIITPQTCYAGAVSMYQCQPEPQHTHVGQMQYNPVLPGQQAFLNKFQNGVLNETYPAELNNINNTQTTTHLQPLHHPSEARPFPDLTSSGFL
# Assay Protocol: In vitro assay 1: antagonism in human cell line (transactivation assay, U87 cells prestimulated with kynurenic acid, DRE firefly luciferase reporter)
# Format: cell-based
# Set-up: host or cells: U87 glioblastoma cells, stably transfected with DRE firefly luciferase and renilla reporter constructs
# Setup Conditions: 150 uM kynurenic acid, 20 hours, read-out: Assay 1: AHR-luc Hum Antagonism IC50
Measured Property: pIC50
Lab note: report pIC50 as minus log10 of the concentration in molar units, number only.

// solved cases for pIC50 follow
Field: pIC50 (UniProt:P35869). Entry: `CC(C)(O)CNC(=O)c1cc(-c2ccc(C(F)(F)F)nc2)nn(-c2cncc(F)c2)c1=O`
6.76

Field: pIC50 (UniProt:P35869). Entry: `O=C(N[C@H](CO)C1CC1)c1cc(-c2ccc(Cl)cc2)nn(-c2cncc(F)c2)c1=O`
7.55

Field: pIC50 (UniProt:P35869). Entry: O=C(NCC(O)C(F)F)c1cc(-c2ccc(C(F)(F)F)cc2)nn(-c2cccnc2)c1=O (racemic) [Example 101]
8.02

Field: pIC50 (UniProt:P35869). Entry: O=C(N[C@H]1COC[C@H]1O)c1cc(-c2ccc(C(F)F)nc2)nn(-c2cccnc2)c1=O (single isomer, unassigned) [Example 183]
5.71

Field: pIC50 (UniProt:P35869). Entry: `Cn1cc(-n2nc(-c3ccc(C(F)(F)F)cc3)cc(C(=O)N[C@H](CO)C3CC3)c2=O)cn1`
8.01

Field: pIC50 (UniProt:P35869). Entry: `CC(C)[C@@H](CO)NC(=O)c1cc(-c2ccc(Cl)cc2)nn(-c2cnn(C)c2)c1=O`
8.43

New cases:
Field: pIC50 (UniProt:P35869). Entry: `C[C@@H](CO)NC(=O)c1cc(-c2ccc(C(F)(F)F)cn2)nn(-c2cccnc2)c1=O`
7.26

Field: pIC50 (UniProt:P35869). Entry: Cn1cc(-n2nc(-c3ccc(C(F)F)cc3)cc(C(=O)N[C@@H]3COC[C@@H]3O)c2=O)cn1 (relative stereo) [Example 60]
7.66

Origin of values: patent US12522594B2
